target: UniProtKB P08684
Sequence (P08684 whole entry): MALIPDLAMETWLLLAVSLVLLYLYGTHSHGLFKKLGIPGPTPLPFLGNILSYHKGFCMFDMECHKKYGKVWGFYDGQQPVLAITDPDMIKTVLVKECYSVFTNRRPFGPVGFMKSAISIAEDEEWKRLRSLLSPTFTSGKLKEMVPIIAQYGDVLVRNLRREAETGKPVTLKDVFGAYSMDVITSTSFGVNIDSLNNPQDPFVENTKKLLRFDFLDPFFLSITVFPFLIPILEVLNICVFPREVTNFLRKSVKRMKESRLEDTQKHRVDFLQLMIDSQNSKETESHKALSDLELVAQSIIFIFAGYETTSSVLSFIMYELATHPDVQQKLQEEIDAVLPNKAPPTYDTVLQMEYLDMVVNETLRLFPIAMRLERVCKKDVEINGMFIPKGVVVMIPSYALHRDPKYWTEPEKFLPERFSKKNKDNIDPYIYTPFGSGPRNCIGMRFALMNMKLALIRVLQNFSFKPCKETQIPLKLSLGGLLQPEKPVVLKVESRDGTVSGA
Recorded measurements of pIC50, one per entry
Schema: pIC50 number; meaning minus log10 of the concentration expressed in molar units.

smilesStr | pIC50
COC(=O)c1ccccc1NC(=O)COc1ccc(C23CC4CC(CC(C(=O)N5CCc6cc(OC)c(OC)cc6C5)(C4)C2)C3)cc1 | 5.42

Moving on to another compound below.
Query: Tell me reported pIC50 for COC(=O)c1cccc(NC(=O)COc2ccc(C34CC5CC(CC(C(=O)N6CCN(Cc7ccc(C(F)(F)F)cc7)CC6)(C5)C3)C4)cc2)c1 , tested with UniProtKB P08684.
Result: 5.69

* * *

The entries below are paired with their reported GI50.
experiment: Intrinsic cytotoxicity against human MES-SA/Dx5 cells; type: functional

Below, 2 compounds whose answers are already recorded.
smilesStr | GI50
COC(=O)c1cccc(NC(=O)COc2ccc(C34CC5CC(CC(C(=O)N6CCN(Cc7ccc(C(F)(F)F)cc7)CC6)(C5)C3)C4)cc2)c1 | > 20 µM
CC(=O)O[C@H]1C(=O)[C@@]2(C)[C@H]([C@H](OC(=O)c3ccccc3)[C@]3(O)C[C@H](OC(=O)[C@H](O)[C@@H](NC(=O)c4ccccc4)c4ccccc4)C(C)=C1C3(C)C)[C@]1(OC(C)=O)CO[C@@H]1C[C@@H]2O | 7.54 µM

Please find the next compound below.
Query: Need GI50, item COC(=O)c1cccc(NC(=O)COc2ccc(C34CC5CC(CC(C(=O)OCc6ccccc6)(C5)C3)C4)cc2)c1
Result: > 20 µM

Reference source: ChEMBL document CHEMBL1155982
